Known Ratio Ki of a selection of molecules
Species on record: Sus scrofa
Assay: Selectivity ratio Ki for dopamine D2 like receptor in porcine striatal membranes to Ki for dopamine D1 like receptor in porcine striatal membranes
Assay type: cell membranes
Observed property: Ratio Ki

[[record]]
molecule = "C[C@H]1Cc2cc(O)c(O)cc2[C@H]2c3ccccc3CN[C@@H]21 (racemic)"
observed_property = "Ratio Ki"
value_qualifier = "="
quantitative_result = 1.3

[[record]]
molecule = "C[C@H]1C[C@H]2NCc3ccccc3[C@@H]2c2cc(O)c(O)cc21 (racemic)"
observed_property = "Ratio Ki"
value_qualifier = "="
quantitative_result = 3.9

[[record]]
molecule = "C[C@@H]1C[C@H]2NCc3ccccc3[C@@H]2c2cc(O)c(O)cc21 (racemic)"
observed_property = "Ratio Ki"
value_qualifier = "="
quantitative_result = 20

[[record]]
molecule = "C[C@@H]1Cc2cc(O)c(O)cc2[C@H]2c3ccccc3CN[C@@H]21"
observed_property = "Ratio Ki"
value_qualifier = "<"
quantitative_result = 0.74


----------
Known pKi of a selection of molecules
Assay: Displacement of [3H]spiperone from dopamine D2 like receptor in porcine striatal membranes after 30 mins by scintillation counting
Type: cell membranes, Sus scrofa, Striatum, Membrane
pKi: −log10 of the molar value.
Observed property: pKi

[[record]]
molecule = "C[C@H]1C[C@H]2NCc3ccccc3[C@@H]2c2cc(O)c(O)cc21 (racemic)"
quantitative_result = 5.44

[[record]]
molecule = "C[C@@H]1Cc2cc(O)c(O)cc2[C@H]2c3ccccc3CN[C@@H]21"
quantitative_result = 5.13

[[record]]
molecule = "C[C@H]1Cc2cc(O)c(O)cc2[C@H]2c3ccccc3CN[C@@H]21 (racemic)"
quantitative_result = 5.06

[[record]]
molecule = "C[C@@H]1C[C@H]2NCc3ccccc3[C@@H]2c2cc(O)c(O)cc21 (racemic)"
quantitative_result = 5.26

[[record]]
molecule = "Oc1cc2c(cc1O)[C@H]1c3ccccc3CN[C@@H]1CC2 (racemic) [DIHYDREXIDINE]"
quantitative_result = 6.62

